Origin of values: paper PMC6017136

# Tested on: Botrytis cinerea Pers
# assay.name: microbe, parasite or virus in culture
# conditions: read-out: Inhibition Ratio (%) / B. cinerea
Tag: Y if measured inhibition at 50 µg/mL is not below 20%, N if it is.

Below are worked cases with known answers.
COc1ccc(-c2cn(C[C@H]3OC(OC(C)=O)[C@H](OC(C)=O)[C@H]3OC)nn2)cc1 (stereo partly drawn) : N
OC1O[C@H](Cn2cc(-c3ccc(Cl)cc3)nn2)[C@H](OCc2ccccc2)[C@H]1O (stereo partly drawn) : Y
CO[C@H]1[C@@H](Cn2cc(-c3cccc(C)c3)nn2)OC(O)[C@@H]1O (stereo partly drawn) : N
CO[C@H]1[C@@H](Cn2cc(-c3ccc(F)cc3)nn2)OC(O)[C@@H]1O (stereo partly drawn) : N
CO[C@H]1[C@@H](Cn2cc(C(C)O)nn2)OC(O)[C@@H]1O (stereo partly drawn) : N

Please tell me: is the compound CO[C@H]1[C@@H](Cn2cc(-c3ccc([N+](=O)[O-])cc3)nn2)OC(OC(C)=O)[C@@H]1OC(C)=O (stereo partly drawn) at or over 20% in terms of inhibition at 50 µg/mL?
Y
